- Tested on: NCI-H1792
- method summary: relative viability (nuclei count vs DMSO), 5 days (fraction); higher = more cells survive
- setup conditions: first compound 0.08 µM
Recorded relative viability for the following molecules
endpoint name: relative viability

>>> meas_value("COc1nc(C)cnc1NS(=O)(=O)c1cccnc1-c1ccc(-c2nnco2)cc1 [Zibotentan] + CC(=O)Nc1cccc(-n2c(=O)n(C3CC3)c(=O)c3c(Nc4ccc(I)cc4F)n(C)c(=O)c(C)c32)c1 [Trametinib] (partner 0.02 µM)")
0.546
>>> meas_value("COc1nc(C)cnc1NS(=O)(=O)c1cccnc1-c1ccc(-c2nnco2)cc1 [Zibotentan] + N=C(N)NC(=N)NCCc1ccccc1 [Phenformin] (partner 250 µM)")
0.424
>>> meas_value("COc1nc(C)cnc1NS(=O)(=O)c1cccnc1-c1ccc(-c2nnco2)cc1 [Zibotentan] + Cc1nc(NC(=O)N2CCC[C@H]2C(N)=O)sc1-c1ccnc(C(C)(C)C(F)(F)F)c1 [Alpelisib] (partner 2 µM)")
0.621
>>> meas_value("COc1nc(C)cnc1NS(=O)(=O)c1cccnc1-c1ccc(-c2nnco2)cc1 [Zibotentan] + CCNC(=O)c1noc(-c2cc(C(C)C)c(O)cc2O)c1-c1ccc(CN2CCOCC2)cc1 [Luminespib] (partner 0.01 µM)")
0.417
>>> meas_value("COc1nc(C)cnc1NS(=O)(=O)c1cccnc1-c1ccc(-c2nnco2)cc1 [Zibotentan] + CC(C)C[C@H](NC(=O)[C@H](Cc1ccccc1)NC(=O)c1cnccn1)B(O)O [Bortezomib] (partner 0.002 µM)")
0.912
>>> meas_value("COc1nc(C)cnc1NS(=O)(=O)c1cccnc1-c1ccc(-c2nnco2)cc1 [Zibotentan] + O=C(c1cc(Cc2n[nH]c(=O)c3ccccc23)ccc1F)N1CCN(C(=O)C2CC2)CC1 [Olaparib] (partner 8 µM)")
0.235

Cited source for all entries: the supplement of paper PMC10307832
